system: 47 KDa protein in U937 cell membranes; format: binding; conditions: U937 cell (mixed) membranes, 1 nM photoprobe
Quantity: Inhibition of photolabeling of the 47 KDa protein, in words

# Compound, Endpoint value
measured = [
    ("CCCCCC=CCC=CCC(O)C(O)CC=CCCCC(=O)O (stereo not shown) [8,9-DHET, 8,9-dihydroxyeicosatrienoic acid]", "not inhibited"),
    ("CCCCCC1OC1CC=CCC=CCC=CCCCC(=O)O (stereo not shown)", "inhibited"),
    ("C=CCN1CC[C@]23c4c5ccc(O)c4O[C@H]2C(=O)CC[C@@]3(O)[C@H]1C5", "not inhibited"),
    ("Clc1ccc(COC(Cn2ccnc2)c2ccc(Cl)cc2Cl)c(Cl)c1 (stereo not shown)", "inhibited"),
    ("CCCCC/C=C\\C/C=C\\C/C=C\\C=C\\C(=O)CCCC(=O)O", "not inhibited"),
    ("C#CCOc1ccccc1CCCCCC(=O)NS(C)(=O)=O", "partially inhibited"),
    ("CCCCC/C=C\\C[C@H]1O[C@H]1C/C=C\\C/C=C\\CCCC(=O)O", "inhibited"),
    ("CC(=O)N1CCN(c2ccc(OCC3COC(Cn4ccnc4)(c4ccc(Cl)cc4Cl)O3)cc2)CC1 (stereo not shown)", "partially inhibited"),
    ("CCCCC[C@H](O)/C=C/[C@@H]1[C@@H](C/C=C\\CCCC(=O)O)[C@H]2CO[C@@H]1C2", "not inhibited"),
]
